Test system: Fibroblast
Assay: Multiplex assay against human fibroblast
Type: toxicity, cell-based
Conditions: 48 h, 10 µM, compound concentration 10 uM, replicate 2
propertyName: Population Mitochondria Different-Phenotype (%)
Use % as the unit, but write only the number.

**Query** // Population Mitochondria Different-Phenotype (%) lookup, key: C=CC(=O)Nc1ccc2ncnc(Nc3ccc(OCc4cccc(F)c4)c(Cl)c3)c2c1.Cc1ccc(S(=O)(=O)O)cc1
**Result** 3

**Query** Given Cn1cc(-c2[nH]c3cc(NC(=O)[C@H](N)C4CCCCC4)cc4c3c2C=NNC4=O)cn1 , state its recorded Population Mitochondria Different-Phenotype (%).
**Result** 2

**Query** Look up Population Mitochondria Different-Phenotype (%) for this molecule: CC(C)NCC(O)COc1ccc(CCOCC2CC2)cc1.Cl (stereo not drawn) [BETAXOLOL HYDROCHLORIDE]
**Result** 2

**Query** Which Population Mitochondria Different-Phenotype (%) value belongs to CNCc1ccccc1-c1csc([C@H](C)Nc2nc(C)nc3cc(OC)c(OC)cc23)c1 [BAY-294] ?
**Result** 100

**Query** If you can, please state the reported Population Mitochondria Different-Phenotype (%) value of Cl.N#Cc1ccc2[nH]cc(CCCCN3CCN(c4ccc5oc(C(N)=O)cc5c4)CC3)c2c1 [VILAZODONE HYDROCHLORIDE] .
**Result** 40

**Query** Which Population Mitochondria Different-Phenotype (%) value belongs to COc1cc2nccc(Oc3ccc(NC(=O)Nc4cc(C)on4)c(Cl)c3)c2cc1OC.O ?
**Result** 75

**Query** Entry CN1CCCC(n2nc(Cc3ccc(Cl)cc3)c3ccccc3c2=O)CC1.Cl (stereo not drawn) [AZELASTINE HYDROCHLORIDE] has what Population Mitochondria Different-Phenotype (%)?
**Result** 39

**Query** Population Mitochondria Different-Phenotype (%) for Cc1nc(-c2ccc(-c3ccc(C(=O)N4CCc5cc6c(cc54)C4(CCN(C)CC4)CO6)cc3)c(C)c2)no1 [SB-224289] ?
**Result** 85

====

System: U2OS
Assay: Multiplex assay against U2OS
Format: toxicity, cell-based
Settings: human, 12 h, 10 µM, compound concentration 10 uM, replicate 1
propertyName: Population Pyknosed Nuclei (%)
Provide the reading as a plain figure in %.

**Query** Could you share which Population Pyknosed Nuclei (%) value was measured for CN(C)C(=O)/C(C#N)=C/c1ccc(-c2nc3cnc4[nH]ccc4c3n2C2CCCCC2)o1 ?
**Result** 25

**Query** If you can, please state the reported Population Pyknosed Nuclei (%) value of Cc1nc(-c2cn3c(n2)-c2ccc(-c4cnn(C(C)(C)C(N)=O)c4)cc2OCC3)n(C(C)C)n1 .
**Result** 5

**Query** Quick one: Population Pyknosed Nuclei (%) for Cc1c(-c2ccc(O)cc2)n(Cc2ccc(OCCN3CCCCCC3)cc2)c2ccc(O)cc12 ?
**Result** 32

**Query** // returns reported Population Pyknosed Nuclei (%) for input C=CC(=O)Nc1cccc(C(=O)Nc2ccc(Nc3cc(-c4[nH]c(SC)nc4C)ccn3)cc2)c1
**Result** 14

====

Tested on: HEK-293T
Assay: Multiplex assay against HEK293T
Assay type: toxicity, cell-based
Details: human, 12 h, 10 µM, compound concentration 10 uM, replicate 1
Exercise: state measured Population Normal (%) for each of the molecules provided.
Number only, in %; omit the unit.

**Query** I'd like to know its Population Normal (%). The molecule in question is CC(C)(O)CNc1ncc(-c2ccnc(Nc3ccnc(Cl)c3)n2)c(CC2CC2)n1
**Result** 76

**Query** Give the measured Population Normal (%) of OC1(c2ccc(Cl)cc2)CCN(Cc2c[nH]c3ccccc23)CC1 .
**Result** 84

**Query** Which Population Normal (%) value belongs to Cc1nc(-c2ccc(-c3ccc(C(=O)N4CCc5cc6c(cc54)C4(CCN(C)CC4)CO6)cc3)c(C)c2)no1 [SB-224289] ?
**Result** 84

**Query** So what does the record say about Population Normal (%) for CNc1nc(NCc2ccc(NS(C)(=O)=O)cc2Cl)cc(-c2ccccn2)n1 ?
**Result** 85

**Query** Query (molecule): CN(C)C(=O)N[C@H]1CC[C@H](CCN2CCN(c3cccc(Cl)c3Cl)CC2)CC1.Cl [CARIPRAZINE HYDROCHLORIDE] ; field requested: Population Normal (%)
**Result** 84

**Query** Which Population Normal (%) value belongs to C=CC(=O)Nc1cccc(C(=O)Nc2ccc(Nc3cc(-c4[nH]c(SC)nc4C)ccn3)cc2)c1 ?
**Result** 85

**Query** If you can, please state the reported Population Normal (%) value of COc1ncc(-c2ccc3nccc(-c4ccnnc4)c3c2)cc1NS(=O)(=O)c1ccc(F)cc1F [OMIPALISIB] .
**Result** 77

**Query** If you can, please state the reported Population Normal (%) value of CN(C)C(=O)/C(C#N)=C/c1ccc(-c2nc3cnc4[nH]ccc4c3n2C2CCCCC2)o1 .
**Result** 62
